# Test system: ADR-RES
# test: Cytotoxicity assay (cell titer-glo and calcein AM), ADR-RES
# assay setup: read-out: Cytotoxicity IC50, NCI/ADR RES, calcein; NCI/ADR RES; calcein AM readout; % error in parentheses
pIC50 listing for selected compounds.
Scale for pIC50: -log10 of concentration given in mol/L; no unit attached.

1. COc1cc2c(c(OC)c1OC)-c1ccc(OC)c(=O)cc1C(NC(=O)CN(OC)C1OCC(O)C(O)C1O)CC2 [Col22, L-riboside] :: 5.45
2. COc1cc2c(c(OC)c1OC)-c1ccc(OC)c(=O)cc1[C@@H](NC(=O)CN(OC)[C@@H]1O[C@H](C(=O)O)[C@H](O)[C@H](O)[C@H]1O)CC2 [Col18, D-Galacturonoside] :: 6.08
3. COc1cc2c(c(OC)c1OC)-c1ccc(OC)c(=O)cc1[C@@H](NC(=O)CN(OC)[C@@H]1O[C@H](CBr)[C@H](O)[C@H](O)[C@H]1O)CC2 [Col42, 6-deoxy-6-bromo-D-galactoside] :: 5.65
4. COc1cc2c(c(OC)c1OC)-c1ccc(OC)c(=O)cc1[C@@H](NC(=O)CN(OC)[C@@H]1O[C@H](C(=O)O)[C@@H](O)[C@H](O)[C@H]1O)CC2 [Col15, D-glucuronoside] :: 5.81
5. COc1cc2c(c(OC)c1OC)-c1ccc(OC)c(=O)cc1C(NC(=O)CN(OC)C1CC(O)C(O)C(C)O1)CC2 [Col65, D-Digitoxoside] :: 6.16
6. CCCCCCCCCC(=O)NC[C@H]1O[C@@H](N(CC(=O)N[C@H]2CCc3cc(OC)c(OC)c(OC)c3-c3ccc(OC)c(=O)cc32)OC)[C@H](O)[C@@H](O)[C@@H]1O [Col59, 6-deoxy-6-N-decanoyl-D-glucosaminoside] :: 5.10
7. CCCCCCCCCC(=O)N[C@@H]1[C@@H](O)[C@H](N(CC(=O)N[C@H]2CCc3cc(OC)c(OC)c(OC)c3-c3ccc(OC)c(=O)cc32)OC)O[C@H](CO)[C@H]1O [Col60, 3-deoxy-3-N-decanoyl-D-glucosaminoside] :: 5.33

Prompt: Fill blank: measured pIC50 of the compound COc1cc2c(c(OC)c1OC)-c1ccc(OC)c(=O)cc1[C@@H](NC(=O)CN(OC)[C@@H]1O[C@H](CCl)[C@H](O)[C@H](O)[C@H]1O)CC2 [Col41, 6-deoxy-6-chloro-D-galactoside] is ____.
Response: 5.43

====

# Tested on: Du145
# test: Cytotoxicity assay (cell titer-glo and calcein AM), Du145
# assay setup: read-out: Cytotoxicity IC50, Du145, CTG; Du145; CTG (cell titer-glo) readout; % error in parentheses
property measured: pIC50
Scale for pIC50: -log10 of concentration given in mol/L; no unit attached.

1) COc1cc2c(c(OC)c1OC)-c1ccc(OC)c(=O)cc1[C@@H](NC(=O)CN(OC)[C@@H]1O[C@H](C(=O)O)[C@@H](O)[C@H](O)[C@H]1O)CC2 [Col15, D-glucuronoside] :: 5.90
2) COc1cccc2c1C(=O)c1c(O)c3c(c(O)c1C2=O)C[C@@](O)(C(=O)CO)C[C@@H]3O[C@H]1C[C@H](N)[C@H](O)[C@H](C)O1 [doxorubi] :: 6.07
3) COc1cc2c(c(OC)c1OC)-c1ccc(OC)c(=O)cc1[C@@H](NC(=O)CN(OC)[C@H]1C[C@@H](O)[C@H](O)[C@@H](CO)O1)CC2 [Col16, 2-deoxy-D-glucoside] :: 6.15

Here is another compound to look at.
Prompt: Fill blank: measured pIC50 of the compound COc1cc2c(c(OC)c1OC)-c1ccc(OC)c(=O)cc1[C@@H](NC(=O)CN(OC)[C@@H]1O[C@H](CN=[N+]=[N-])[C@H](O)[C@H](O)[C@H]1O)CC2 [Col43, 6-deoxy-6-azido-D-galactoside] is ____.
Response: 5.31
